From: patent US10323018B2

For each of the molecules below, state its pIC50.
pIC50: −log10 of the molar value.

Input line: Recall the reported pIC50 of "CCOc1cc(-c2ccncc2C)nc2cc(C(=O)NCCCc3nnc[nH]3)ccc12" when tested on hNAMPT protein (Homo sapiens (Human), UniProt P43490).
Sequence (P43490 whole entry): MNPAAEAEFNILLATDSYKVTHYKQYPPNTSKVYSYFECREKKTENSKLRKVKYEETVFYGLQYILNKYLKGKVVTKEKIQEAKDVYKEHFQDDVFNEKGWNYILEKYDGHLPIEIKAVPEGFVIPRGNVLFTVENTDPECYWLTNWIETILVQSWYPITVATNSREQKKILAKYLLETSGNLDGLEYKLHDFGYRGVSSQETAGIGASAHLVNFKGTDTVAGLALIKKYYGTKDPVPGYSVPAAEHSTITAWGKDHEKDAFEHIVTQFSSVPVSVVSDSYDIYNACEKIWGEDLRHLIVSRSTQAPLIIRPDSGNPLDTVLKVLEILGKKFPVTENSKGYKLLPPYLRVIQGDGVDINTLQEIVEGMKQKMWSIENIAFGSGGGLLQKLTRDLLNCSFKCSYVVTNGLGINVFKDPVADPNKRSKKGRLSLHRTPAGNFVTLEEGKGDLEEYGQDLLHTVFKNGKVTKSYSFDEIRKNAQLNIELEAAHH
Output line: 7.30 to 8.00

Input line: Recall the reported pIC50 of "CCc1nc(-c2ccc(Cl)s2)nc2cc(C(=O)NCCCc3ncc[nH]3)ccc12" when tested on hNAMPT protein (Homo sapiens (Human), UniProt P43490).
Output line: 7.30 to 8.00

Input line: Recall the reported pIC50 of "O=C(NCCCc1ncc[nH]1)c1ccc2c(OCCO)cc(-c3ccc(F)cc3)nc2c1" when tested on hNAMPT protein (Homo sapiens (Human), UniProt P43490).
Output line: > 8.00

Input line: Recall the reported pIC50 of "CCOc1cc(-c2ccnc(C)c2)nc2cc(C(=O)NCCCc3[nH]nnc3C)ccc12" when tested on hNAMPT protein (Homo sapiens (Human), UniProt P43490).
Output line: 7.30 to 8.00
